Tested on: Phosphatidylinositol 4,5-bisphosphate 3-kinase catalytic subunit alpha isoform (Homo sapiens), P42336 [H1047R]
Sequence (P42336 whole entry H1047R, canonical isoform): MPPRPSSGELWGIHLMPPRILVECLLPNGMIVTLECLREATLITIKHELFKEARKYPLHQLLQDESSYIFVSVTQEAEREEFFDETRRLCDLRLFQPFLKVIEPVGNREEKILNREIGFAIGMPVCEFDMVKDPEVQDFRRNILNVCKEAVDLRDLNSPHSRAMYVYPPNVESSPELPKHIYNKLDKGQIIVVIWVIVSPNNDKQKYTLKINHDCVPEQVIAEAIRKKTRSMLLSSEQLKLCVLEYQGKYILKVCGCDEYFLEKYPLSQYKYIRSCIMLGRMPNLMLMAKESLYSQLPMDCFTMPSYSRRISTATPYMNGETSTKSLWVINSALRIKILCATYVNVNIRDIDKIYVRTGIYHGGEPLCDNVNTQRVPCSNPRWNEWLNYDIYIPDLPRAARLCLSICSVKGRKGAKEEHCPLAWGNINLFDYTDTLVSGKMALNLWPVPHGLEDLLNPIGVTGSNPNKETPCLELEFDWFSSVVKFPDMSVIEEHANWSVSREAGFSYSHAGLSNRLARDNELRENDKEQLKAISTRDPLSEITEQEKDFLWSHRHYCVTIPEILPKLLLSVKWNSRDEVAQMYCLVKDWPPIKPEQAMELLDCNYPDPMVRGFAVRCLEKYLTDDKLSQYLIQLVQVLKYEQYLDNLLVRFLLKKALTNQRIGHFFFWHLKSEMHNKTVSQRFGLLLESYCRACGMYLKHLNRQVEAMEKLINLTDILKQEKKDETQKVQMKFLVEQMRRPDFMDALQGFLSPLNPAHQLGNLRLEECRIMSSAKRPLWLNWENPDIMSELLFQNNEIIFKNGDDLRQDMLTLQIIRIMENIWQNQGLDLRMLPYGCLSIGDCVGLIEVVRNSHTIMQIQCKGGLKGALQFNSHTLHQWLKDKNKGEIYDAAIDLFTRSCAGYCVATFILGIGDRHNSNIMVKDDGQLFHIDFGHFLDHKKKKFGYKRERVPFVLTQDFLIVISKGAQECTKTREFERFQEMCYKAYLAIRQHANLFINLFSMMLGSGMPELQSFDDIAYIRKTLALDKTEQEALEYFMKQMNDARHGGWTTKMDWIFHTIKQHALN
Experiment: Inhibition of PI3Kalpha H1047R mutant in human HCT116 cells assessed as inhibition of Akt Ser473 phosphorylation at 25 uM by immunoblot analysis
Assay type: cell-based
Settings: HCT-116
Active and inactive are the calls of the source. The rule behind the calls is not given here.
endpoint: inhibition

O=c1c(O)c(-c2ccc(O)c(O)c2)oc2cc(O)cc(O)c12 Active
O=c1c(O)c(-c2cc(O)c(O)c(O)c2)oc2cc(O)cc(O)c12 Active
O=C(NCc1ccccc1)c1c(O)nc2ccccc2c1O Active
COc1ccc(C(=O)c2ccccc2C(=O)O)c(O)c1 Active

* * *

System: HCT-116
Test: Growth inhibition of human HCT116 cells overexpressing PI3Kalpha after 48 hrs by MTT assay
Assay type: functional, cell-based
Conditions: HCT-116, 48 h
Some compounds, each annotated with its measured IC50.
Kindly provide the numeric value in µM only, without the unit symbol.

Cc1cc(O)c2c(c1)C(=O)c1cc(O)cc(O)c1C2=O 5.3

*Q* HCT-116 / IC50 / O=c1c(O)c(-c2ccc(O)c(O)c2)oc2cc(O)cc(O)c12 : value?
*A* 23

*Q* Try the compound COc1ccc(C(=O)c2ccccc2C(=O)O)c(O)c1
*A* 31

*Q* Try the compound O=C(NCc1ccccc1)c1c(O)nc2ccccc2c1O
*A* 1.1

Attribution: ChEMBL document CHEMBL1938320
